Recorded measurements of pIC50, one per entry
# tested-system: Cbl-b (Homo sapiens (Human), UniProt Q13191)
# Sequence (Q13191 36-427): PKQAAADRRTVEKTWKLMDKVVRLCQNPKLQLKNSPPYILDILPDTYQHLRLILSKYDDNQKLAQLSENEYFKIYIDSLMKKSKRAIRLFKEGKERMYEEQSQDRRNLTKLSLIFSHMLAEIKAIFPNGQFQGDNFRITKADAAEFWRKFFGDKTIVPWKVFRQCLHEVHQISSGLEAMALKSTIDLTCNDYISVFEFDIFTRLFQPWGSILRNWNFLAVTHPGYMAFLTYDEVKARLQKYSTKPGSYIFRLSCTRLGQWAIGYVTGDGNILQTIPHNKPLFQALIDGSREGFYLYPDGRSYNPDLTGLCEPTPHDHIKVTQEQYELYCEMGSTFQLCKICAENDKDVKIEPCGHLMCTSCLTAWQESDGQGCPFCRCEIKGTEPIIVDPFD
# test-details: Cbl-b displacement assay (Cbl-b inhibition assay), Biological Example 12
# Assay type: binding
# setup-conditions: 0.125 nM Cbl-b final concentration (Low); Table 12-1; read-out: Cbl-b IC50 (Low)
pIC50: −log10 of the molar value.
measured-parameter: pIC50

                               entry_smiles  measured_parameter    test_value
0  Cn1cnnc1C(F)(F)[C@](C)(F)c1cccc(N2Cc3c(cc(CN4CCC(F)(F)C4)cc3C(F)(F)F)C2=O)c1               pIC50        < 8.30
1  C[C@@H](c1cc2c(c(C(F)(F)F)c1)CN(c1cccc(C3(Cc4nncn4C)COC3)c1)C2=O)N1CC[C@H](F)C1               pIC50  8.30 to 9.00
2  Cn1cnnc1CC1(c2cccc(N3Cc4c(cc(CN5CCC6(CC6)C5)cc4C(F)(F)F)C3=O)c2)COC1               pIC50  8.30 to 9.00
3  C[C@@H]1[C@@H](c2nncn2C)[C@H]1c1cccc(N2Cc3c(cccc3C(F)(F)F)C2=O)c1               pIC50        < 8.30
4  Cn1cnnc1C(F)(F)[C@](C)(F)c1cccc(N2Cc3c(cc(CN4CC[C@H](F)C4)cc3C(F)(F)F)C2=O)c1               pIC50        < 8.30
5  C[C@@H]1CN(Cc2cc3c(c(C(F)(F)F)c2)CN(c2cccc(C4(Cc5nncn5C)COC4)c2)C3=O)CCC1(F)F               pIC50        > 9.00
6  C[C@H](c1cc2c(c(C(F)(F)F)c1)CN(c1cccc(C3(Cc4nncn4C)COC3)c1)C2=O)N1CC[C@H](F)C1               pIC50        < 8.30

###

# System: primary human total T-cells
# test-details: Primary human total T-cell activation: IL-2 secretion, Biological Example 13
# Type: cell-based
# setup-conditions: anti-CD3/anti-CD28 co-stimulation, inhibitor 1 μM, 48 hours, fold change over baseline, Table 13-1, read-out: IL-2 secretion CD3/CD28 1 μM
measured-parameter: fold induction at 1 µM

In [3]: df
Out[3]:
                                   compound  test_value
0  Cn1cnnc1C(F)(F)[C@](C)(F)c1cccc(N2Cc3c(cc(CN4CCC(F)(F)C4)cc3C(F)(F)F)C2=O)c1 [Compound 58]        < 10
1  Cn1cnnc1C(F)(F)[C@](C)(F)c1cccc(N2Cc3c(cc(CN4CC[C@H](F)C4)cc3C(F)(F)F)C2=O)c1 [Compound 57]    11 to 15
2  C[C@H]1CCCN(Cc2cc3c(c(C(F)(F)F)c2)CN(c2cccc(C4(Cc5nncn5C)COC4)c2)C3=O)C1 [Compound 1]        > 15
3  C[C@@H]1C[C@H](C)CN(Cc2cc3c(c(C(F)(F)F)c2)CN(c2cccc(C4(Cc5nncn5C)COC4)c2)C3=O)C1 [Compound 2]    11 to 15
4  C[C@@H](c1cc2c(c(C(F)(F)F)c1)CN(c1cccc(C3([C@@H](F)c4nncn4C)COC3)c1)C2=O)N1CCC2(CC2)C1 [Compound 60]        > 15
5  C[C@@H]1[C@@H](c2nncn2C)[C@H]1c1cccc(N2Cc3c(cccc3C(F)(F)F)C2=O)c1 [Compound 54]        < 10

###

Recorded measurements of pIC50, one per entry
# tested-system: Cbl-b (Homo sapiens (Human))
# test-details: Cbl-b displacement assay (Cbl-b inhibition assay), TR-FRET probe displacement, Biological Example 1
# Assay type: binding
# setup-conditions: 0.5 nM Cbl-b final concentration (High); read-out: Cbl-b activity IC50 (High)
pIC50: −log10 of the molar value.
measured-parameter: pIC50

                                    compound    test_value
 0  C[C@@H]1CN(Cc2cc3c(c(C(F)(F)F)c2)CN(c2cc(C4(Cc5nncn5C)COC4)cc(NC4COC4)n2)C3=O)CCC1(F)F [Compound 29]  7.00 to 8.29
 1  Cn1cnnc1CC1(c2cccc(N3Cc4c(cc(CN5CCCC6(CC6)C5)cc4C(F)(F)F)C3=O)c2)COC1 [Compound 7]  7.00 to 8.29
 2  CC1CN(Cc2cc3c(c(C(F)(F)F)c2)CN(c2cccc(C4([C@H](F)c5nncn5C)CC4)c2)C3=O)CCC1(F)F (some centres unmarked) [Compound 25]  8.30 to 9.00
 3  Cn1cnnc1CC1(c2cccc(N3Cc4c(cc(CN5CCC(F)(F)[C@@H](CO)C5)cc4C(F)(F)F)C3=O)c2)COC1 [Compound 16]  8.30 to 9.00
 4  CC1CN(Cc2cc3c(c(C(F)(F)F)c2)CN(c2cccc(C4([C@@H](F)c5nncn5C)CC4)c2)C3=O)CCC1(F)F (some centres unmarked) [Compound 26]  8.30 to 9.00
 5  Cn1cnnc1CC1(c2cccc(N3Cc4c(cc(CN5CCC(F)(F)[C@@]6(CCOC6)C5)cc4C(F)(F)F)C3=O)c2)COC1 [Compound 14]  8.30 to 9.00
 6  Cn1cnnc1CC1(c2cccc(N3Cc4c(cc(CN5CCC(F)(F)[C@H](C#N)C5)cc4C(F)(F)F)C3=O)c2)COC1 [Compound 11]  8.30 to 9.00
 7  CCOc1cc(C2(Cc3nncn3C)COC2)cc(N2Cc3c(cc(CN4CCC(F)(F)[C@H](C)C4)cc3C(F)(F)F)C2=O)n1 [Compound 28]  8.30 to 9.00
 8  C[C@@H]1C[C@H](C)CN(Cc2cc3c(c(C(F)(F)F)c2)CN(c2cccc(-c4c(-c5nncn5C)cnn4C)c2)C3=O)C1 [Compound 45]  8.30 to 9.00
 9  C[C@@H]1C[C@H](C)CN(Cc2cc3c(c(C(F)(F)F)c2)CN(c2cccc(C4(Cc5nncn5C)COC4)c2)C3=O)C1 [Compound 2]        > 9.00
10  Cn1cnnc1CC1(c2cccc(N3Cc4c(cc(CN5CCCC6(COC6)C5)cc4C(F)(F)F)C3=O)c2)COC1 [Compound 12]  7.00 to 8.29
11  CC1CN(Cc2cc3c(c(C(F)(F)F)c2)CN(c2cccc(C4(Cc5nncn5C)CC4)c2)C3=O)CCC1(F)F (centres unmarked) [Compound 24]        > 9.00
12  Cn1cnnc1CC1(c2cccc(N3Cc4c(cc(CN5CCC(F)(F)[C@H](CO)C5)cc4C(F)(F)F)C3=O)c2)COC1 [Compound 15]  8.30 to 9.00
13  C[C@H]1CCCN(Cc2cc3c(c(C(F)(F)F)c2)CN(c2cccc(C4(Cc5nncn5C)COC4)c2)C3=O)C1 [Compound 1]        > 9.00
14  Cn1cnnc1CC1(c2cccc(N3Cc4c(cc(CN5CCC(F)(F)[C@@H](C#N)C5)cc4C(F)(F)F)C3=O)c2)COC1 [Compound 10]        > 9.00
15  C[C@@H]1CN(Cc2cc3c(c(C(F)(F)F)c2)CN(c2cccc(C4(Cc5nncn5C)COC4)c2)C3=O)C[C@H](C)C1(F)F [Compound 17]  8.30 to 9.00
16  C[C@@H]1CN(Cc2cc(C(=O)Nc3cccc(C4(Cc5nncn5C)COC4)c3)nc(C3CC3)c2)CCC1(F)F [Compound 32]        > 9.00
17  C[C@H]1CN(Cc2cc3c(c(C(F)(F)F)c2)CN(c2cccc(C4(Cc5nncn5C)COC4)c2)C3=O)CCC1(F)F [Compound 9]  7.00 to 8.29
18  C[C@@H]1CN(Cc2cc3c(c(C(F)(F)F)c2)CN(c2cc(C4(Cc5nncn5C)COC4)cc(C4CC4)n2)C3=O)CCC1(F)F [Compound 30]  7.00 to 8.29
19  Cn1cnnc1CC1(c2cccc(N3Cc4c(cc(CN5CCC(F)(F)[C@]6(CCOC6)C5)cc4C(F)(F)F)C3=O)c2)COC1 [Compound 13]  8.30 to 9.00

Recorded values, source patent US11464802B2.
